TESTED_SYSTEM: T1, recombinant human EGFR extracellular domain with 6xHis (human, UniProt P00533 25-645)
T1 construct: In-house produced; also called 6xHis EGFR ECD; soluble human EGFR ECD; not shown: 6xHis tag
METHOD_NOTES: SPR (BIAcore 2000); IgG captured on anti-human Fc, soluble monovalent EGFR ECD injected
Description: Kinetic analysis of the full length IgG antibodies of the invention was performed on a BIAcore 2000, employing an assay as described in (Canziani, Klakamp, et al. 2004, Anal. Biochem, 325:301-307) allowing measurement of monovalent affinities of whole IgG molecules against soluble antigen. […] The association rate constant (ka) and dissociation constant (kd) were evaluated globally from the generated sensograms with the BIA evaluation software 4.1 provided by the manufacturer.
Please use 1 whenever kon is not below 80000 M⁻¹ s⁻¹, and 0 whenever it is.

Sample answers from the record:
Exercise: Would you say antibody 1261 (antibody, human IgG1, kappa, V domains shown, Chimeric IgG1 kappa) VH: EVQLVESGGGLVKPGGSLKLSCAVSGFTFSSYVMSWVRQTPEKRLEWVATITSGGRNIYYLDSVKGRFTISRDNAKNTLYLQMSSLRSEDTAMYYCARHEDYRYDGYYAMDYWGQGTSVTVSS VL: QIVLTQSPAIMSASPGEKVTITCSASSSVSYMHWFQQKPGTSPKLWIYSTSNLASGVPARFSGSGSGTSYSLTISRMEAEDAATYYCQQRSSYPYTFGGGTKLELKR shows kon at minimum 80000 M⁻¹ s⁻¹?
Key: 1

Exercise: Reported kon at or above 80000 M⁻¹ s⁻¹? antibody 1320 (antibody, human IgG1, kappa, V domains shown, Chimeric IgG1 kappa) VH: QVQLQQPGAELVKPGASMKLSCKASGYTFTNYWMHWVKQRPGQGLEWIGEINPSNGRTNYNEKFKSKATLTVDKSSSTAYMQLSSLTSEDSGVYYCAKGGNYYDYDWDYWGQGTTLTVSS VL: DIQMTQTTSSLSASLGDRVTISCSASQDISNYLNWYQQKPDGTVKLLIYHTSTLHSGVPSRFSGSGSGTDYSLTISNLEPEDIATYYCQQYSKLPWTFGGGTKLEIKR
Key: 1

Exercise: Confirm if kon reported for the binder antibody 1030 (antibody, human IgG1, kappa, V domains shown, Chimeric IgG1 kappa) VH: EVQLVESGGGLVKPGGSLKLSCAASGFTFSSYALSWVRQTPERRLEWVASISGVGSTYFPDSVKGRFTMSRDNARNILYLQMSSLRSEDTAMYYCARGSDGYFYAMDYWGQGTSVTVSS VL: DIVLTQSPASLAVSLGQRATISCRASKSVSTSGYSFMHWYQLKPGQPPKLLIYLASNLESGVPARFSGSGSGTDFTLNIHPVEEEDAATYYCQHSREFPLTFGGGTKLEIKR is 80000 M⁻¹ s⁻¹ or above.
Key: 0

Pending binder:
Exercise: Confirm if kon reported for the binder antibody 1260 (antibody, human IgG1, kappa, V domains shown, Chimeric IgG1 kappa) VH: QVQLKESGPGLVAPSQSLSITCTVSGFSLTTYGVHWVRQPPGKGLEWLGVIWAGGSTNYNSALMSRLSIKKDNSKSQVFLKMNSLQTDDTAMYYCARAYGYNFDYWGQGTTLTVSS VL: DIQMTQTTSSLSASLGDRVTISCSASQGITNYLNWYQQKPDGTVKLLIYYSSSLHSGVPSRFSGSGSGTDYSLTISNLEPEDIATYYCQQYSEIPYTFGGGTKLELKR is 80000 M⁻¹ s⁻¹ or above.
Key: 0
